Ref: patent US10517889B2

Test system: human SMAD7 mRNA
experiment.summary: Antisense inhibition of human SMAD7 mRNA expression in Hep3B cells by 3-10-3 cEt gapmers, 10,000 nM, electroporation (Example 2)
Format: cell-based
condition.details: Hep3B cells, electroporation with 10,000 nM antisense oligonucleotide, approximately 24 hours, primer probe set RTS5062, relative to untreated control cells
Strand notation (5' to 3'): a small letter for the sugar, then the base; units joined by * are phosphorothioate-linked, units joined directly phosphodiester-linked; [ ] holds rarer units or linkages, { } end groups; capitals alone tell only the bases. k = constrained ethyl (cEt); [5mC] = 5-methylcytosine; d = 2'-deoxy (DNA)
Mark -1 for % inhibition of SMAD7 mRNA expression values under 50%, and 1 for everything at or above.

Evaluate 799365 (k[5mC]*kT*k[5mC]*d[5mC]*dG*dA*dG*dT*dT*dA*dT*d[5mC]*d[5mC]*k[5mC]*k[5mC]*kA; antisense) [compound 799365] : % inhibition of SMAD7 mRNA expression at minimum 50%?
1

I'd appreciate it if you could say whether 798687 (antisense kG*kG*k[5mC]*dG*dA*dG*dG*dA*dG*dG*d[5mC]*dG*dA*kG*kG*kA) [compound 798687] has % inhibition of SMAD7 mRNA expression at least equal to 50%.
1

Is % inhibition of SMAD7 mRNA expression at least 50%? Consider 790626 (kG*kA*kT*dA*dA*d[5mC]*dA*d[5mC]*d[5mC]*d[5mC]*dA*dT*dA*kG*kA*kA; antisense) [compound 790626]
-1

Given the entry 799480 (antisense k[5mC]*kA*k[5mC]*dA*d[5mC]*dA*dG*dG*d[5mC]*dA*dA*d[5mC]*d[5mC]*kA*k[5mC]*kA) [compound 799480] , answer whether its % inhibition of SMAD7 mRNA expression meets or surpasses 50%.
-1

Hi, just wondering whether 798676 (antisense k[5mC]*k[5mC]*kA*dT*dG*dA*dA*dG*dA*dA*dG*dT*d[5mC]*kG*kG*kG) [compound 798676] shows % inhibition of SMAD7 mRNA expression of 50% or higher.
-1

Hello, I need to know if 799378 (antisense kG*kA*kA*dT*dA*d[5mC]*dT*dG*dA*dG*dA*dA*dA*kA*k[5mC]*k[5mC]) [compound 799378] has measured % inhibition of SMAD7 mRNA expression not below 50%. Thanks!
-1

###

System: human SMAD7 mRNA
experiment.summary: Antisense inhibition of human SMAD7 mRNA expression in Hep3B cells by 5-10-5 MOE gapmers, single concentration, electroporation, RT-PCR (Example 1, Study 1 and 2)
Type: cell-based
condition.details: electroporation, 5,000 nM, approximately 24 hours, relative to untreated control cells, gapmers targeting SEQ ID NO: 1 and 2
Strand notation (5' to 3'): a small letter for the sugar, then the base; units joined by * are phosphorothioate-linked, units joined directly phosphodiester-linked; [ ] holds rarer units or linkages, { } end groups; capitals alone tell only the bases. e = 2'-O-(2-methoxyethyl) (MOE); [5mC] = 5-methylcytosine; d = 2'-deoxy (DNA)
Task for the reader: assign each of the following substances its reported % inhibition of SMAD7 mRNA expression.

Give % inhibition of SMAD7 mRNA expression for 771899 (antisense e[5mC]*e[5mC]*eT*eG*eA*dT*dT*dG*dT*d[5mC]*dT*d[5mC]*d[5mC]*dA*d[5mC]*eA*eT*e[5mC]*e[5mC]*e[5mC]) [compound 771899]
57%

Return % inhibition of SMAD7 mRNA expression for the following substance: 771366 (antisense eT*eG*e[5mC]*eT*eG*dA*dT*dT*dA*dT*dT*dA*dA*dT*dG*eG*eT*e[5mC]*eT*eG) [compound 771366]
49%

For the substance 771795 (antisense e[5mC]*eG*eT*e[5mC]*eT*dG*d[5mC]*dG*dG*d[5mC]*dA*dA*dA*dA*d[5mC]*e[5mC]*e[5mC]*eA*e[5mC]*e[5mC]) [compound 771795] , report % inhibition of SMAD7 mRNA expression.
53%

Given the substance 771827 (antisense eA*eA*eG*eG*eA*d[5mC]*dA*dT*d[5mC]*dA*d[5mC]*dA*dG*dG*dG*eA*e[5mC]*eT*eG*eG) [compound 771827] , write its reported % inhibition of SMAD7 mRNA expression.
31%

Check the records and state % inhibition of SMAD7 mRNA expression for 771723 (antisense e[5mC]*e[5mC]*eA*eA*eG*dG*dT*dT*dA*d[5mC]*dA*dT*dA*d[5mC]*dA*eA*e[5mC]*e[5mC]*eT*eG) [compound 771723]
0%

Give recorded % inhibition of SMAD7 mRNA expression. 771851 (antisense eG*e[5mC]*eT*eT*eT*dG*dA*dA*dA*dA*d[5mC]*dA*dT*d[5mC]*d[5mC]*e[5mC]*eA*e[5mC]*eT*eT) [compound 771851]
25%

Supply reported % inhibition of SMAD7 mRNA expression belonging to this substance: 771739 (antisense eT*eT*eT*eG*eA*dA*dA*dA*d[5mC]*d[5mC]*d[5mC]*dA*dA*d[5mC]*d[5mC]*e[5mC]*eT*eG*eG*eG) [compound 771739]
22%

Supply recorded % inhibition of SMAD7 mRNA expression for 771444 (eA*eG*e[5mC]*e[5mC]*eT*d[5mC]*dT*dT*dG*dA*d[5mC]*dT*dT*d[5mC]*d[5mC]*eG*eA*eG*eG*eA; antisense) [compound 771444] here.
65%

For 771420 (eG*e[5mC]*e[5mC]*e[5mC]*eG*dG*dG*d[5mC]*d[5mC]*dG*d[5mC]*d[5mC]*dG*d[5mC]*d[5mC]*eA*e[5mC]*e[5mC]*eG*eG; antisense) [compound 771420] , write its % inhibition of SMAD7 mRNA expression.
1%

Please look at this substance and report its % inhibition of SMAD7 mRNA expression: 771875 (antisense e[5mC]*e[5mC]*e[5mC]*e[5mC]*eG*dT*dG*d[5mC]*dA*d[5mC]*dT*d[5mC]*d[5mC]*d[5mC]*dA*eG*e[5mC]*e[5mC]*e[5mC]*eT) [compound 771875]
42%

Supply reported % inhibition of SMAD7 mRNA expression belonging to this substance: 771412 (eT*e[5mC]*eG*e[5mC]*e[5mC]*d[5mC]*d[5mC]*dT*dT*d[5mC]*dT*d[5mC]*d[5mC]*d[5mC]*d[5mC]*eG*e[5mC]*eA*eG*e[5mC]; antisense) [compound 771412]
52%
